src = ChEMBL document CHEMBL3431459

Entries with their measured IC50, system Carnitine O-palmitoyltransferase 2, mitochondrial (Rattus norvegicus, UniProt P18886):
EXPERIMENTAL READOUT: IC50 (µM)

[I] COc1ccc(Cl)cc1S(=O)(=O)N1C[C@H](C)c2ccc(C(=O)Nc3ccc(C(=O)O)cc3)cc21
[II] COc1ccc(Cl)cc1S(=O)(=O)N1CCc2c(C)cc(C(=O)Nc3ccc(C(=O)O)c(Cl)c3)cc21
Returns the identifier with the smallest measured IC50 among I and II . To answer, give the label that identifies your chosen option. II
(II: 0.967 µM, I: 2.13 µM)

* * *

- EXPERIMENT SUMMARY: SUPPLEMENTARY: PAMPA permeability assay
- Type: physicochemical
- CONDITION SUMMARY: read-out: Permeability
EXPERIMENTAL READOUT: Papp (×10⁻⁶ cm/s)

Before answering, review these 3 worked examples.
O=C(O)c1ccc(NC(=O)c2ccc(Cl)c(NS(=O)(=O)c3cc(Cl)cc(Cl)c3)c2)cc1
2.25
Cc1nnsc1-c1noc([C@H]2CCCCN2C(=O)COc2ccccc2)n1
5.95
Cc1cc(C)cc(S(=O)(=O)c2nn(CC(=O)O)c3ccc(C(=O)Nc4ccccc4)cc23)c1
0.01

[P] CC(=O)Nc1ccc(-c2nc([C@H]3CCCCN3C(=O)COc3ccccc3)cs2)cc1
[Q] Cc1cc(C(=O)Nc2ccc(C(=O)O)cc2)cc(S(=O)(=O)Nc2cccc(C(F)(F)F)c2)c1C
API: POST /compare with P and Q ; response names the item with higher Papp. To answer, give the label that identifies your chosen option. P
(P: 1.23 ×10⁻⁶ cm/s, Q: 0.841 ×10⁻⁶ cm/s)

* * *

- EXPERIMENT SUMMARY: SUPPLEMENTARY: Lipophilicity (log D) Determination by high-throughput shake-flask
- Type: physicochemical
- CONDITION SUMMARY: octanol/water
EXPERIMENTAL READOUT: logD

Before answering, review these 4 worked examples.
COc1ccc(Cl)cc1S(=O)(=O)N1CCCCc2ccc(C(=O)Nc3ccc(C(=O)O)c(Cl)c3)cc21
0.66
COc1ccc(Cl)cc1CN1C(=O)C2(CC2)c2ccc(C(=O)Nc3nc(CC(=O)O)cs3)cc21
2.7
COc1ccc(Cl)cc1S(=O)(=O)N1C[C@@H](C)c2ccc(C(=O)Nc3ccc(C(=O)O)cc3)cc21
2.98
O=C(COc1ccccc1)N1CCCC[C@@H]1c1noc(-c2cnnc3ccccc23)n1
2.9

[1] COc1ccc(Cl)cc1S(=O)(=O)N1CCOc2c(Cl)cc(C(=O)Nc3nc(CC(=O)O)cs3)cc21
[2] COc1ccc(Cl)cc1S(=O)(=O)N(C)c1cc(C(=O)Nc2ccn(CC(=O)O)n2)cc2c1OCO2
[3] CCOC(=O)C1CN(S(=O)(=O)c2cc(Cl)ccc2OC)c2cc(C(=O)Nc3cccc(F)c3)ccc2O1 (centres undefined)
Order each entry by recorded logD, climbing from the minimum. Thanks in advance for listing the labels in the requested order. 2, 1, 3

* * *

Target protein (sequence): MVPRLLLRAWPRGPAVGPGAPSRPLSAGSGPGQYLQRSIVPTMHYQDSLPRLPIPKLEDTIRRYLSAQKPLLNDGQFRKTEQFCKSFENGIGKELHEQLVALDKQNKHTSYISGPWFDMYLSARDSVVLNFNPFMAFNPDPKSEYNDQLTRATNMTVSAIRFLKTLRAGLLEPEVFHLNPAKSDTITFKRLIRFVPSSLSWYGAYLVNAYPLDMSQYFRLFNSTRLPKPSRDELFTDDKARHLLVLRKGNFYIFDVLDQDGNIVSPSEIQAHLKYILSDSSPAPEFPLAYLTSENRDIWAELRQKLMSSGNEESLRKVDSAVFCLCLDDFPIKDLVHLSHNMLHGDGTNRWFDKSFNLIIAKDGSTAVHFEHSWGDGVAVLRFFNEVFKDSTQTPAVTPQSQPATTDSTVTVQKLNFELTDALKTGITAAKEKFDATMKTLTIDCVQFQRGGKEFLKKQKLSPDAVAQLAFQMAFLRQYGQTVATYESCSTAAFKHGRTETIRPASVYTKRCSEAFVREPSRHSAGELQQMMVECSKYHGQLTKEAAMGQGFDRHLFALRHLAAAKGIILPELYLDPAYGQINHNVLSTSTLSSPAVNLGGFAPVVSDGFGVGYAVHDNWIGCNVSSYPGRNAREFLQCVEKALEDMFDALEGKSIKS
pIC50: −log10 of the molar value.
EXPERIMENTAL READOUT: pIC50

Before answering, review these 8 worked examples.
O=C1CN(c2cccc(-c3nc([C@H]4CCCCN4C(=O)COc4ccccc4)no3)c2)C(=O)N1
4.99
COc1ccc(Cl)cc1S(=O)(=O)N1CC(C(=O)O)Oc2ccc(C(=O)Nc3ccccc3F)cc21 (stereo not drawn)
< 4.00
COc1ccc(Cl)cc1S(=O)(=O)N1CC(C(=O)O)Oc2ccc(C(=O)Nc3ccccc3)cc21 (stereo not drawn)
< 4.00
COc1ccc(-c2noc(C3C[S+]([O-])CCN3C(=O)COc3ccccc3)n2)cc1 (stereo not drawn)
< 4.00
COc1ccc(Cl)cc1S(=O)(=O)N1CC(C)c2ccc(C(=O)Nc3ccc(C(=O)O)c(Cl)c3)cc21 (stereo not drawn)
6.16
O=C(COc1ccccc1)N1CCCC[C@@H]1c1nc(-c2cccc(N3CCCS3(=O)=O)c2)no1
< 4.00
NC(=O)c1cncc(-c2noc([C@H]3CCCCN3C(=O)COc3ccccc3)n2)c1
4.61
COc1ccc(Cl)cc1S(=O)(=O)c1nn(CC(=O)O)c2ccc(C(=O)Nc3ccccc3)cc12
< 4.00

Provide only the value of recorded pIC50 for CC(=O)Nc1cccc(-c2nc([C@H]3CCCCN3C(=O)COc3ccccc3)n(C)n2)c1 < 4.00

Provide only the value of recorded pIC50 for COC(=O)c1cccc(-c2nc([C@H]3CCCCN3C(=O)COc3ccccc3)sc2C)c1 4.22

Provide only the value of recorded pIC50 for COc1ccc(Cl)cc1S(=O)(=O)c1n[nH]c2ccc(C(=O)Nc3ccccc3)cc12 < 4.00

Provide only the value of recorded pIC50 for Cc1nn(C)c(-c2noc([C@H]3CCCCN3C(=O)COc3ccccc3)n2)c1Cl < 4.00

Provide only the value of recorded pIC50 for COc1ccc(Cl)cc1S(=O)(=O)N1CCOc2c(C)cc(C(=O)Nc3ccc(C(=O)O)cc3)cc21 6.26

Provide only the value of recorded pIC50 for CCOC(=O)c1cn2ccc(-c3noc([C@H]4CCCCN4C(=O)COc4ccccc4)n3)cc2n1 < 4.00

Provide only the value of recorded pIC50 for COc1ccc(Cl)cc1S(=O)(=O)N(c1cc(C(=O)Nc2ccn(CC(=O)O)n2)cc2c1OCO2)C(C)C < 4.00

Provide only the value of recorded pIC50 for CC(=O)NCc1cccc(-c2nc([C@H]3CCCCN3C(=O)COc3ccccc3)no2)c1 4.54

Provide only the value of recorded pIC50 for COc1ccc(Cl)cc1CN(C(=O)C(C)C)c1cc(C(=O)Nc2nc(CC(=O)O)cs2)ccc1Cl < 4.00

Provide only the value of recorded pIC50 for COc1ccc(Cl)cc1S(=O)(=O)N1CCOc2ccc(C(=O)Nc3nc(CC(=O)O)cs3)cc21 < 4.00
